- System: RXF 393 renal
- test-summary: NCI-60 one-dose screen, 48 h (100 = growth as untreated, 0 = no growth, -100 = all killed)
- measurement-parameters: 10 µM unless noted
Compounds without any hit were thinned out: in the full panel of roughly 83,000, 20% have a hit. The source made the active and inactive calls. Rule for the calls: active = growth percent below 10; inactive = the rest.
Listed here are compounds together with their documented growth.
readout-type: growth

>>> reported_measurement("CCOC(=O)C/C(=N\\Nc1cc(=O)[nH]c2ccc(OC)cc12)C(=O)OCC")
"96.4% (inactive)"
>>> reported_measurement("O=c1c2ccccc2n(C[C@H]2CO2)c2ccccc12")
"-67.1% (active)"
>>> reported_measurement("COc1ccc(/C=C2\\c3cc(OC)c(OC)c(OC)c3CC[C@@H]2O)cc1F")
"8.31% (active)"
>>> reported_measurement("CCCCn1c(NC(C)=O)c(S(=O)(=O)c2ccccc2)c2nc3ccccc3nc21")
"86.8% (inactive)"
>>> reported_measurement("Nc1nc(C(=O)N/N=C/c2ccc(F)cc2)nn1-c1ccc(S(N)(=O)=O)cc1")
"95.5% (inactive)"
>>> reported_measurement("COC(=O)c1sccc1-c1cc(O)c(C(=O)Nc2ccccc2)s1")
"115% (inactive)"
>>> reported_measurement("Cc1cc(O)c(=O)cc2c1C[C@H]1CC(C)(C)/C=C/C[C@]3(C)Oc4cc(=O)c(O)cc(C)c4C[C@H]3C[C@H](O)[C@@]1(C)O2")
"19.8% (inactive)"
>>> reported_measurement("CC1(C)N=C(N)N=C(N)N1c1cc(Cl)ccc1Cl")
"78.7% (inactive)"
>>> reported_measurement("O=c1oc2c(cnc3ccccc32)cc1-c1cccc(Cl)c1")
"112% (inactive)"
>>> reported_measurement("Clc1ccc(-c2cc(-c3ccccc3)nc(N3CCN(CCCNc4ccnc5cc(Cl)ccc45)CC3)n2)cc1")
"-60.5% (active)"

---

- Tested on: HOP-62 NSCLC
- test-summary: NCI-60 one-dose screen, 48 h
- measurement-parameters: 10 µM unless noted
This is part of a sample that, as a whole, favours compounds with a hit. Of some 83,000 tested, about 20% had one in any assay. The source made the active and inactive calls. How the source made its calls: active means growth percent below 10; inactive means the rest.
Outcome codes: active, inactive

>>> label_value("Fc1ccc2[nH]cc(-c3nc(-c4c[nH]c5c(Cl)nccc45)cs3)c2c1")
"inactive"
>>> label_value("COc1ccc(Cl)cc1Nc1nc(C(F)(F)F)ccc1C(=O)N/N=C/c1ccc([N+](=O)[O-])cc1")
"inactive"
>>> label_value("O=C(O)c1cn(C2CC2)c2cc(N3CCN(C(=O)N4CCOCC4)CC3)c(F)cc2c1=O")
"inactive"
>>> label_value("O=C(Nc1cc(Cl)ccc1O)c1ccccc1Nc1ccnc(C(F)(F)F)c1")
"inactive"
>>> label_value("Cc1ccc(OCCOCCOCCOc2ccc(C)n(O)c2=S)c(=S)n1O")
"inactive"
>>> label_value("COc1cc(OC)c2c(=O)c3c(CC=C(C)C)cc(OC)c(O)c3oc2c1")
"inactive"
>>> label_value("C#Cc1cccc(NC(=O)C2CCCCN2C(=O)CCl)c1 (configuration not stated)")
"inactive"
>>> label_value("COc1ccc(OC)c(Nc2nnc(-c3cc(OC)c(OC)c(OC)c3)o2)c1")
"inactive"
>>> label_value("C=C1C(=O)O[C@H]2[C@H]1CC/C(COC(=O)/C=C\\C(=O)NCc1ccc(Cn3c(=O)sn(CCCCl)c3=O)cc1)=C\\CC[C@@]1(C)O[C@@H]21")
"inactive"
>>> label_value("COC(=O)c1sccc1-c1cc(O)c(C(=O)Nc2ccccc2)s1")
"inactive"
>>> label_value("O=C(NCCNC(c1ccccc1)C(NCCNC(=O)c1ccccc1)c1ccccc1)c1ccccc1 (configuration not stated)")
"inactive"
>>> label_value("c1cc(OCCN2CCCC2)ccc1CNc1ccc2nc(CCC3CCCCC3)[nH]c2c1")
"inactive"
>>> label_value("COc1ccc(/C=N/NC(=O)Cn2c(-c3ccc(S(C)(=O)=O)cc3)nc3ccccc32)cc1")
"inactive"
>>> label_value("CN(C)c1ccc(C(=S)c2ccc(N(C)C)cc2)cc1")
"inactive"
>>> label_value("Cc1ccc2c(c1)nc(C)n2-c1ncnc2c1CC(C)c1cc(O)ccc1N2C (configuration not stated)")
"inactive"
>>> label_value("COc1ccc(-c2cc(-c3cc(OC)ccc3OC)nc(SCC(C)=O)c2C#N)cc1")
"inactive"
>>> label_value("C#Cc1cccc(Nc2ncnc3cc(NC(=O)CCl)ccc23)c1")
"active"
>>> label_value("COC12C=C/C(=C(/C(=O)OCc3csc(SC)n3)C(=O)CCCCCCCCC3(OC)C=C/C(=C(/C(=O)OCc4cnc(SC)s4)C(=O)CCCCCCCC1)O3)O2 (configuration not stated)")
"inactive"
>>> label_value("CCNC(=O)N1CCc2c(Br)c3c(c(OC)c2C1Cc1ccc(OC)cc1)OCO3 (configuration not stated)")
"inactive"
>>> label_value("CC(=O)N1N=C(c2ccc(Nc3nc(Nc4ccc(F)cc4)nc(Nc4ccc(F)cc4)n3)cc2)CC1c1ccc(N(C)C)cc1 (configuration not stated)")
"inactive"
>>> label_value("Cc1cccc(N2C(=O)/C(=C/C(Cl)=C/c3ccc([N+](=O)[O-])cc3)SC2=S)c1C")
"inactive"
>>> label_value("Fc1cc2[nH]ncc2c2c3c(c(-c4cn[nH]c4C(F)(F)F)nc12)CCCC3")
"active"
>>> label_value("CS(=O)(=O)Nc1cc(-c2ccc3ncnc(Nc4ccc(OCc5ccccn5)c(Cl)c4)c3c2)cnc1Cl")
"inactive"
>>> label_value("C=C[C@@]1(C)CC(=O)[C@@H](C(C)(C)c2cn(C)c3ccc(Br)cc23)C[C@@H]1O[Si](C)(C)C(C)(C)C")
"inactive"
>>> label_value("CCSc1ccnc(N)n1")
"inactive"
>>> label_value("CCCCNC(=O)c1ccc2c(c1)nc(-c1ccccc1)n2C1CCCCC1")
"inactive"
>>> label_value("CN1CCN(c2ccc(NC3=CC(=O)c4ncncc4C3=O)cc2)CC1")
"active"
>>> label_value("N#C/C(=C\\c1ccc(-c2cccc(Cl)c2)o1)C(=O)Nc1ncc(Cc2ccc(Cl)cc2)s1")
"inactive"
>>> label_value("CCCCCc1ccc(S(=O)(=O)Nc2cc(-c3csc(NC(C)=O)n3)ccc2N2CCN(C)CC2)cc1")
"inactive"
>>> label_value("COC(=O)/C(CCC=C(C)C)=C1\\[C@@H](OC(C)=O)C[C@@]2(C)[C@H]1C/C(=N/O)[C@H]1[C@@]3(C)CC/C(=N\\O)[C@@H](C)[C@@H]3CC[C@@]12C")
"inactive"
>>> label_value("C[C@H]1[C@H](C)CC[C@]2(C(=O)NCCNCCN)CC[C@]3(C)C(=CC[C@@H]4[C@@]5(C)CCC(=O)C(C)(C)[C@@H]5CC[C@]43C)[C@H]12")
"inactive"
>>> label_value("COc1ccc(/C=C/C(c2cc(OC)c(OC)c(OC)c2)n2cncn2)cc1O (configuration not stated)")
"inactive"
>>> label_value("O=C(/C=C/c1ccccc1)N(C1CCCCC1)C1CCCCC1")
"inactive"
>>> label_value("COc1cc(C=Nc2oc(-c3ccccc3)c(-c3ccccc3)c2C#N)cc(CN2CCCC2)c1O")
"inactive"
>>> label_value("O=CCCCOCc1ccccc1")
"inactive"
>>> label_value("CC1(C)CC[C@]23CC[C@]4(C)[C@H](CC[C@@H]5[C@@]6(C)CCNCC(C)(C)[C@@H]6CC[C@]54C)[C@H]2[C@H]1OC3")
"inactive"
>>> label_value("Cc1nc2sc(C(=O)Nc3cccc(Cl)c3C)c(N)c2cc1C(=O)/C=C/c1ccccc1")
"active"

---

- Test system: NCI-H522 lung
- test-summary: NCI-60 one-dose screen, 48 h (100 = growth as untreated, 0 = no growth, -100 = all killed)
- measurement-parameters: 10 µM unless noted
Compounds without any hit were thinned out: in the full panel of roughly 83,000, 20% have a hit.
Labelling: growth reported below 40% becomes 1; at or above becomes 0.

>>> label_value("N#Cc1c(-c2ccccc2)cc(-c2ccccc2)n(CCCCC(=O)NO)c1=O")
1
>>> label_value("CCCCCCCCn1ccc2cc(NC(=O)CN=[N+]=[N-])ccc21")
0
>>> label_value("CN(C)c1ccc(CNCCO)cc1")
0
>>> label_value("CCOc1ccc(/C=C/C(=O)c2cccc(OCCCOc3cccc(C(=O)/C=C/c4ccc(OCC)cc4)c3)c2)cc1")
0
>>> label_value("Cc1ccccc1N1CCN(C(=S)c2ccccc2)CC1")
0
>>> label_value("O=C(/C=C/c1ccccc1)c1cccc2ccccc12")
1

---

- Tested on: M14 melanoma
- test-summary: NCI-60 one-dose screen, 48 h
- measurement-parameters: 10 µM unless noted
The panel holds about 83,000 compounds, 20% with a hit somewhere; the sample as a whole holds those more often. Activity calls are given as the source filed them. The calls were made as follows: active = growth percent below 10; inactive = the rest.
Classes used: active, inactive

>>> label_value("COc1ccc(Cl)cc1Nc1nc(C(F)(F)F)ccc1C(=O)N/N=C/c1ccc([N+](=O)[O-])cc1")
"inactive"
>>> label_value("COC12C=C/C(=C(/C(=O)OCc3cncnc3)C(=O)CCCCCCCCC3(OC)C=C/C(=C(/C(=O)OCc4cncnc4)C(=O)CCCCCCCC1)O3)O2")
"active"
>>> label_value("Cc1c(O)cc(-c2cnc(N/N=C/c3ccccc3)s2)c(O)c1C")
"inactive"
>>> label_value("O=C(NNc1nc2cc(F)ccc2n2c(CN3CCOCC3)ccc12)c1ccccc1")
"active"
>>> label_value("CCOC(=O)CC[C@H](NC(=O)c1ccc(N(C)Cc2cnc3nc(N)nc(N)c3n2)c2ccccc12)C(=O)OCC")
"inactive"
>>> label_value("CN(C)CCC(=O)C1CC1")
"inactive"
>>> label_value("C[C@@H]1NC(=O)[C@H](Cc2ccccc2)N(Cc2cccnc2)C1=O")
"inactive"
>>> label_value("CS(=O)/C(C#N)=C\\C=C\\c1cccc(Cl)c1 (stereo not given)")
"active"
>>> label_value("O=C(NC1CCC(Br)CC1)C1CCCC(S(=O)(=O)NC2CCCCC2)C1 (stereo not given)")
"inactive"
>>> label_value("CCOC(=O)C1=C(c2ccccc2)N=C2N(c3ccccc3)N=C(C(C)=O)N2C1c1ccc(F)cc1 (stereo not given)")
"inactive"
>>> label_value("Cc1cc2oc(/C=C/c3ccccc3)cc(=O)c2c(C)c1Cl")
"inactive"
>>> label_value("Cc1ncc(C(=O)Nc2ccc(CN3CCN(C)CC3)c(C(F)(F)F)c2)cc1C#Cc1cnc(N)c2ccc(C#N)cc12")
"active"
>>> label_value("O=C(/C=C/C12c3ccccc3C(c3ccccc31)C1C(=O)NC(=O)C12)c1ccc(I)cc1 (stereo not given)")
"inactive"
>>> label_value("COc1ccc(CNc2ccc3nc(NC(=O)CN4CCCCCC4)sc3c2)cc1")
"inactive"
>>> label_value("COc1cc(N2C(=O)[C@H](Cl)C2c2ccc(SC)cc2)cc(OC)c1OC (stereo not given in full)")
"active"
>>> label_value("C#Cc1cccc(NC(=O)C2CCCCN2C(=O)CCl)c1 (stereo not given)")
"active"
>>> label_value("COc1ccc(Nc2ncc(I)c(NCCCNC(=O)C3CCC3)n2)cc1")
"inactive"
>>> label_value("CN1CCN(Cc2ccc(NC(=O)c3cncc(C#Cc4cnc(N)cc4C#N)c3)cc2C(F)(F)F)CC1")
"active"
>>> label_value("C=CC(CC(c1ccccc1)(c1ccccc1)c1ccccc1)N(CC)CC (stereo not given)")
"inactive"
>>> label_value("Cc1cccc(N=Nc2cccc(C)c2)c1")
"inactive"
